System Name: T1, human VEGF (hVEGF) (human, UniProt P15692 181-395)
T1 construct: also called VEGF-A
T1 sequence: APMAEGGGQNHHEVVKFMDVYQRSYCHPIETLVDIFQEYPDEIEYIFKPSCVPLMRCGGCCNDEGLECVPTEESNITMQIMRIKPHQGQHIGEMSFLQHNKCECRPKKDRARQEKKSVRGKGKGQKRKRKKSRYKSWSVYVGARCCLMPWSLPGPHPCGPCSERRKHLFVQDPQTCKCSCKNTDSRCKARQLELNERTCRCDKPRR
Assay Explanation: SPR
Assay Metric: Kd
Kindly write the number and append the unit.

In: # get_value(readout='Kd', item= G6.31 LC-F83A (Fab, V domains shown, Fab) VH: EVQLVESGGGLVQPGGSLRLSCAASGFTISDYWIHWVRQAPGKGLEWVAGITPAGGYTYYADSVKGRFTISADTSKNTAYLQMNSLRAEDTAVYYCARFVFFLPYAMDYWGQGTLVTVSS VL: DIQMTQSPSSLSASVGDRVTITCRASQDVSTAVAWYQQKPGKAPKLLIYSASFLYSGVPSRFSGSGSGTDFTLTISSLQPEDAATYYCQQGYGNPFTFGQGTKVEIK )
Out: 0.132 nM

Each recorded value in this set is attributed to patent US20210115124A1.
